System: A549/ATCC NSCLC
assay info: NCI-60 one-dose screen, 48 h (100 = growth as untreated, 0 = no growth, -100 = all killed)
assay context: 10 µM unless noted
The panel holds about 83,000 compounds, 20% with a hit somewhere; the sample as a whole holds those more often.
readout name: growth (%)
Just the number in %, nothing appended.

Data request, read-out growth, for COc1cc2c(cc1-c1c(C)noc1C)ncc1nc(C3CCOCC3)n(C3CCC(OC(F)F)CC3)c12 (centres undefined)
57.4

Consider the molecule CC(C)(C)CC(C)(C)Nc1c(-c2c(O)c3ccccc3oc2=O)nc2sccn12 and give its measured growth.
90.8

What value of growth has been reported for the following molecule? Cc1c(CC(=O)Nc2ccccc2)nnn1-c1ccccc1
107

Item CCOC(=O)c1ccc2c(c1)c1c(C)c3cnccc3c(C)c1n2C has what recorded growth?
-11.8

Requested read-out: growth. Entry: COc1cc2c(c(OC)c1OC)CCC(c1cccc(C(=O)Nc3ccc([N+](=O)[O-])cc3)c1)O2 (centres undefined)
55.2

Would you kindly share the measured growth for C=C(CNCCc1ccc(O)cc1)[C@@H]1CC[C@]2(CO)CC[C@]3(C)[C@H](CC[C@@H]4[C@@]5(C)CCC(N)C(C)(C)[C@@H]5CC[C@]43C)[C@@H]12 (some centres undefined) ?
-66.6

I have this molecule here, O=C(CSc1nnc(-c2ccc(Cl)c(Cl)c2)n1-c1ccccc1)Nc1ccc(C(=O)/C=C/c2ccc(Cl)cc2)cc1 , and I need its recorded growth.
68.9

# query: growth of entry Nc1ncc(-c2ccc3ncnc(N4CCc5cc(F)c(Cl)cc54)c3c2)cc1C(F)(F)F
21.4

I'd like to know its growth. The molecule in question is Oc1ccc(C2OCCO2)c2cccnc12
56.3

---

Please respond with reported growth for every item in the list.
Test system: HCT-15 colon
assay info: NCI-60 one-dose screen, 48 h (100 = growth as untreated, 0 = no growth, -100 = all killed)
assay context: 10 µM unless noted
Procedure: Growth inhibition of the HCT-15 human tumor cell line is measured as a screen for anti-cancer activity. Cells are grown in 96 well plates and exposed to the test compound for 48 hours. Compounds are tested at a single concentration, which is 10^-5 M for most compounds. The reported endpoint is percent growth (GI% or GIPRCNT), where numbers from 0 - 100% represent growth inhibition, and numbers from -100% - 0 represent cell death. For example, a value of 40 represents 60% growth inhibition. […]
The panel holds about 83,000 compounds, 20% with a hit somewhere; the sample as a whole holds those more often.
Numeric answer only, unit % assumed.

What value of growth on HCT-15 colon does O=C(CN1C(=O)NC2NC(=O)NC21)N/N=C/c1cccc([N+](=O)[O-])c1 (centres undefined) have?
100

What growth appears in the records for this compound with HCT-15 colon? Cc1c(-c2cnc3ccc(Cl)cc3c2C(=O)O)nnn1-c1ccc(Cl)cc1
104

Lookup: growth / HCT-15 colon / CCOc1cc(\C=N/N=C(N)/C(N)=N\N=C/c2ccc(O)c(OCC)c2)ccc1O
101

Return growth measured with HCT-15 colon given this compound: [2H]C([2H])([2H])Oc1ccc(/C=C/C(=O)/C=C(O)/C=C/c2ccc(OC([2H])([2H])[2H])c(OC([2H])([2H])[2H])c2)cc1OC([2H])([2H])[2H]
14.3

API: value(readout= growth, system= HCT-15 colon, query= Cc1cc(C(=O)Nc2cc(Nc3ncccc3-c3ncnc4nc[nH]c34)ccc2F)cc(C(C)(C)C#N)c1 )
42.7

Please tell me: growth of COc1cc(-c2ccc(-c3ccc(C(=N)N)s3)s2)cc(OC)c1OC , system HCT-15 colon?
13.6

Reported growth for HCT-15 colon, given O=C(Nc1ccccc1C(F)(F)F)C1=NCCCCN1 ?
97.8

Item: CN(C)c1ccc(/C=N/NC(=O)CSc2nc3sc4c(c3c(=O)n2-c2ccccc2)CCCCC4)cc1 Test system: HCT-15 colon Read-out: growth Value: ?
43.8

Reported growth for HCT-15 colon, given COc1ccc(C(=O)/C=C/c2ccc(C)cc2)cc1S(N)(=O)=O ?
22.8

---

Test system: NCI/ADR-RES ovarian
assay info: NCI-60 one-dose screen, 48 h
assay context: 10 µM unless noted
Method: Growth inhibition of the NCI/ADR-RES human […] tumor cell line is measured as a screen for anti-cancer activity. Cells are grown in 96 well plates and exposed to the test compound for 48 hours. Compounds are tested at a single concentration, which is 10^-5 M for most compounds. The reported endpoint is percent growth (GI% or GIPRCNT), where numbers from 0 - 100% represent growth inhibition, and numbers from -100% - 0 represent cell death. For example, a value of 40 represents 60% growth inhibition. […]
Compounds without any hit were thinned out: in the full panel of roughly 83,000, 20% have a hit. Calls of active or inactive are those of the source. How the source made its calls: active means growth percent below 10; inactive means the rest.
Your reply should match one of these outcome classes. t (active), f (inactive)

GET /call?item= CCCCN(CCC#N)C(N)=O returns the recorded outcome of this test.
f

Outcome logged for CCOC(=O)c1cc(C(=O)c2cc(OC)cc(OC)c2)n2ccccc12 in this assay:
f

What classification did CC(=O)Oc1ccccc1C(=O)N(Cc1ccc2c(Cl)cc(Cl)c(O)c2n1)c1ccccc1 end up with in this test?
t

Which outcome did this test record for the compound Cc1nc2cccc(NCc3ccc(C(=O)NO)cc3)c2c(=O)n1-c1ccccc1 ?
f

Which outcome did this test record for the compound COC(=O)c1sc(-c2ccc(C)cc2)cc1O ?
f

Any idea what this test logged for COc1cc2c(c(OC)c1OC)CCC(c1cccc(NC(=O)c3cccc(Cl)c3)c1)O2 (stereo not given) ?
f

For CCn1c2ccccc2c2cc(C(O)c3cccc4ncccc34)ccc21 (stereo not given) , what call appears in the results of this test?
t

Which outcome was entered for the compound Cc1cccc(C)c1NC(=O)Nc1ccccc1 in this test?
f

For C#CC(F)(F)[C@]1(O)CCC2C3CCC4=CC(=O)CCC4=C3[C@@H](c3ccc(N(C)C)cc3)C[C@@]21C (stereo not given in full) , what call appears in the results of this test?
f

Which result was noted for this compound in the test: Cc1ccc(S(=O)(=O)c2nc(-c3ccccc3)oc2S(C)=O)cc1 (stereo not given)
f

Give the logged outcome of this assay for the following compound: COc1cc2c(c(OC)c1OC)CCC(c1cccc(C(=O)Nc3ccccc3Br)c1)O2 (stereo not given)
f

// outcome(item) with item = Brc1ccc(-c2nn(-c3ccccc3)cc2-c2nn[nH]n2)s1
f

Hey, what did the test say about CC1=C2[C@@H](CC1)[C@]1(C)O[C@@](C(C)C)(C[C@H]1OC(=O)CO)[C@H]2OC(=O)CCCc1ccccc1 ?
f

// param item: O=C(Nc1ncc(Cc2ccccc2Cl)s1)c1ccc2c(c1)OCCO2 ; yields the recorded call
f

Lab log entry: CCN(CC)c1ccc(/C=N/NC(=O)c2ccccc2Nc2ccnc(C(F)(F)F)c2)c(O)c1 — outcome as called in the assay?
f

How did this test come out for CN(C)CCOc1ccc(/C(=C(/CCCCCCCCCC[P+](c2ccccc2)(c2ccccc2)c2ccccc2)c2ccccc2)c2ccccc2)cc1 ?
t

Can you look up the reported call for CC(C)(C#N)c1cc(C(=O)Nc2cc(Nc3ncccc3-c3ncnc4nc[nH]c34)ccc2F)cc(C(F)(F)F)c1 for me?
f

Status in this test for Oc1c(Cl)cc(Cl)c2ccc(CN3CCNCC3)nc12 ?
t

Could you please tell me the result logged for C=C(C)[C@@H]1CC[C@]2(COCCCNCCCN)CC[C@]3(C)[C@H](CC[C@@H]4[C@@]5(C)CC[C@H](OCCCN)C(C)(C)[C@@H]5CC[C@]43C)[C@@H]12 in this assay?
t

Please share the test call associated with COc1cc(C(=O)/C=C/c2c(-c3cccs3)nc3sc(C)cn23)cc(OC)c1OC .
t

# fetch the recorded call for CCCc1cc(CCC)n2nc(N)nc2n1 here
f

Field: outcome | Entry: NC(=O)[C@@H]1Cc2ccccc2CN1C(=O)c1ccc2c(c1)Cc1ccccc1-2
f

Fill in: this test's call for CCN1C(=O)N(CC)C2C1NN=c1s/c(=C3\C(=O)N(C)c4ccccc43)c(=O)n12 (stereo not given) is ___
t

Please state the recorded outcome for this compound: CC(C)C(=O)Nc1ncc(C(=O)NCCN(Cc2ccccc2)C(=O)c2ccc(S(=O)(=O)Nc3ccccc3)cc2)s1
f

Hi, sorry to bother you, what did the test record for Cc1nn(C)c2ncnc(Nc3ccccc3Br)c12 ?
f

Per the records of this test, what outcome belongs to CCOC(=O)c1c(C)c2c(n1Cc1ccccc1)CSc1cc(C#N)c(=O)[nH]c1-2 ?
f

Could you kindly confirm the outcome this assay logged for C=CC(=O)Nc1ccc2ncnc(Nc3cccc(NS(=O)(=O)CCC)c3Cl)c2c1 ?
f

Hey, what did the test say about COC1=C(OC)C(=O)C(CCCCCCCCCCO)=C(C)C1=O ?
f

Answer briefly: the call reported for c1ccc(-c2nc(N3CCNCC3)c3oc(-c4ccccc4)nc3n2)cc1 in this assay.
t

Which outcome did this test record for the compound O=C1/C(=C/c2ccc(-c3ccc(Cl)cc3)o2)SC(=S)N1CCc1ccc(O)cc1 ?
f

Hello, I am checking results. What call was entered for CN(C)CC1C(=O)O[C@H]2[C@H]1CC/C(COC(=O)NCc1ccc(Cn3c(=O)sn(CCCI)c3=O)cc1)=C\CC[C@@]1(C)O[C@@H]21 (stereo not given in full) ?
f

So what was the verdict on Cc1ccc(S(=O)(=O)N(CCC(=O)O)c2ccccc2)cc1 in this test?
f

Hey, what did the test say about COC(=O)c1cc(-c2cc(OC)c(OC)c(OC)c2)[nH]c1N/N=C/c1c(Cl)cccc1Cl ?
t

GET /call?item= Nc1c(C(=O)c2ccc(Cl)cc2)sc(Nc2ccccc2)c1-c1nc2ccccc2s1 returns the recorded outcome of this test.
f

# outcome recorded in this test, key = CN(C)C(=S)NN=C(c1ccccn1)c1ccccn1
f

Answer briefly: the call reported for COc1cc(OCc2cccc(-c3ccc4c(c3)OCCO4)c2C)cc(OC)c1C=O in this assay.
f

Query: recorded result category for CCOC(=O)c1cc(C(=O)c2cc(OC)cc(OC)c2)n2ncccc12 in this test
t

Outcome logged for C1=C2CCCC3=Cc4ccccc4OC23Oc2ccccc21 in this assay:
f

Dear all, I need the recorded test outcome for Cc1[nH]c(C(=O)Nc2ccc(C(N)=O)cc2OC(C)C)c(Cl)c1Cl , thank you.
f

For NCCNc1ccc([N+](=O)[O-])cc1 , what call appears in the results of this test?
f

The measurements presented in this section are drawn from PubChem BioAssay (NCI).
